Target: T1, rat serum albumin (rat, UniProt P02770 25-608)
T1 construct: Bought protein, immobilized on a CM5 chip by amine coupling; also called Rat SA
Test: SPR (Biacore 8K), albumin immobilized on CM5 chip, 25 C, 1:1 kinetic fit
Protocol: The immobilization of the serum albumin to a Series S Sensor Chip CM5 surface is performed according to the manufacturer's instructions (Amine Coupling Kit BR-1000-50). Briefly, carboxyl groups on the sensor chip surfaces (flow cell 1 and 2) are activated by injecting 70 μL of a mixture containing 75 mg/mL EDC and 11.5 mg/mL NHS at 10 μL/min. […]
Response key: True means kon >= 900000 M⁻¹ s⁻¹; False means kon < 900000 M⁻¹ s⁻¹.

Please review the following examples before continuing.
• RLN Analog 1 (other) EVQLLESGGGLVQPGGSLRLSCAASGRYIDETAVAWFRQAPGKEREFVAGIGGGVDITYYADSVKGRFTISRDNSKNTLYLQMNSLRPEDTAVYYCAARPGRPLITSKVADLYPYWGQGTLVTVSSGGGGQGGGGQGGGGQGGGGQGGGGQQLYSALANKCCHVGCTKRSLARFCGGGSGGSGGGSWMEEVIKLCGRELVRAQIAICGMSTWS = True
• RLN Analog 8 (other, Single-chain fusion: VHH - (PGPQ)8 L1 - RLN2 B chain (desB1) - L2 - RLN2 A chain) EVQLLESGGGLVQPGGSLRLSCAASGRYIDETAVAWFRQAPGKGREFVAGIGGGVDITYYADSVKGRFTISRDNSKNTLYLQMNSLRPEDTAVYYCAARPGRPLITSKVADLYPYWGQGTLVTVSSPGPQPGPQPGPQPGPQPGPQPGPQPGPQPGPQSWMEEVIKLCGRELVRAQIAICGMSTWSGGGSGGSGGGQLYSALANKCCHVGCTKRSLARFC = True
• RLN Analog 11 (other, Single-chain fusion: VHH - (G4Q)5 L1 - RLN2 B chain (desB1) - L2 of thirteen residues - RLN2 A chain (desA1-4)) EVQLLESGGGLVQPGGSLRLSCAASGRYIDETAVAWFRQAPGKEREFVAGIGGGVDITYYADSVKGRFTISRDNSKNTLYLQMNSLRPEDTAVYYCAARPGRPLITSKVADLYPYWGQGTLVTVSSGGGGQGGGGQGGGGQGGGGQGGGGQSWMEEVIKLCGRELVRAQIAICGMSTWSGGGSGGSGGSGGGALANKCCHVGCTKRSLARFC = True

Turning now to a further binder:
Enquiry: Identify whether the reported kon of the following binder is 900000 M⁻¹ s⁻¹ or greater: RLN Analog 5 (other, Single-chain fusion: RLN2 B chain (desB1) - L2 - RLN2 A chain - (G4Q)5 L1 - VHH (C-terminal)) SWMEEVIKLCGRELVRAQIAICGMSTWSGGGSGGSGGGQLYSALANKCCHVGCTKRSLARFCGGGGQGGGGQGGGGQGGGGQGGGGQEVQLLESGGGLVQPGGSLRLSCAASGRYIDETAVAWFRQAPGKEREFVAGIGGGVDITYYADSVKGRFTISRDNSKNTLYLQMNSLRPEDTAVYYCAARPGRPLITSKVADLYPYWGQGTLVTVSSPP
Return: False
